Target: recombinant CETP (rCETP) (Homo sapiens, UniProt P11597)
Sequence (P11597 18-493): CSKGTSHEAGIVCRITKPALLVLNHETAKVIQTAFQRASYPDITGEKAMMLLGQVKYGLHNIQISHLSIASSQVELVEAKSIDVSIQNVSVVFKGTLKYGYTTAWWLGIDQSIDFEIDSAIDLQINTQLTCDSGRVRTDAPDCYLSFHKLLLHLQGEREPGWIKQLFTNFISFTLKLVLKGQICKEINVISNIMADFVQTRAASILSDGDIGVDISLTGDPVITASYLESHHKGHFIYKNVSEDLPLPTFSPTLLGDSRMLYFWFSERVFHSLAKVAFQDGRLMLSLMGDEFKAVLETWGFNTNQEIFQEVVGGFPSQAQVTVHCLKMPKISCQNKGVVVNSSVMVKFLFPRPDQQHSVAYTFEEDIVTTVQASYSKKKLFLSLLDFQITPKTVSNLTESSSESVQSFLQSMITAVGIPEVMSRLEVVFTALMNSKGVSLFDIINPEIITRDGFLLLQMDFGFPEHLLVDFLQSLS
Test: CETP scintillation proximity assay (transfer of [3H]cholesteryl esters from HDL to biotinylated LDL)
Details: rCETP; 37° C., 4 hours; SPA; read-out: IC50 (inhibition of CETP transfer activity)
parameter: IC50 (nM)
// return numeric value only (unit: nM, not printed)

COc1ccc(O)c(O)c1CC1=C(C)CC[C@H]2C(C)(C)CCC[C@]12C (relative stereo)	2000

Here is another molecule to look at.
IC50 in this record for COc1ccc(O)c(O)c1/C=C1\[C@@H](C)CC[C@H]2C(C)(C)CCC[C@]12C (relative stereo) : 2900

Entry source: patent US5446207A
